The reported measurements were obtained from PubChem BioAssay AID1919001.

tested on: 699152-130-R-J1-PDC complex spheroid growth; test: Anticancer human tumor 699152-130-R-J1-PDC patient-derived pancreatic carcinoma cell line growth inhibition [AhR]; conditions: second compound 1 µM; first compound 0.316 µM; hits give low values
Listed here are molecules together with their documented viability, T/C.
Expressed in %, but write only the number.

[[record]]
molecule = "COc1cc(C2c3cc4c(cc3C(OC3OC5COC(C)OC5C(O)C3O)C3COC(=O)C23)OCO4)cc(OC)c1O (stereo not drawn) + Cc1cncc(-c2nc(NCCc3c[nH]c4ccccc34)c3ncn(C(C)C)c3n2)c1"
uom = "%"
result_value = 74.9

[[record]]
molecule = "NS(=O)(=O)OCC1CC(n2ccc3c(NC4CCc5ccccc54)ncnc32)CC1O (stereo not drawn) + Cc1cncc(-c2nc(NCCc3c[nH]c4ccccc34)c3ncn(C(C)C)c3n2)c1"
uom = "%"
result_value = 149

[[record]]
molecule = "CC(C)c1c(-c2ccccc2)nc2c(C#N)c[nH]n2c1=O + Cc1ccccc1N=Nc1ccc(NC(=O)c2ccnn2C)c(C)c1"
uom = "%"
result_value = 87.7

[[record]]
molecule = "Nc1ccn(C2OC(CO)C(O)C2(F)F)c(=O)n1 (stereo not drawn) + Cc1ccccc1N=Nc1ccc(NC(=O)c2ccnn2C)c(C)c1"
uom = "%"
result_value = 50.2


Briefly, viability, T/C measured for COc1cccc2c1C(=O)c1c(O)c3c(c(O)c1C2=O)CC(O)(C(=O)CO)CC3OC1CC(N)C(O)C(C)O1 (stereo not drawn) + Cc1ccccc1N=Nc1ccc(NC(=O)c2ccnn2C)c(C)c1 : 43

###

tested on: 699152-130-R-J1-PDC complex spheroid growth; assay: Anticancer human tumor 699152-130-R-J1-PDC cell line growth inhibition [AhR]; conditions: second compound 1 µM; first compound 0.001 µM; hits give low values;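 note: compound exposure lasted 7 days after spheroids had grown for 3 days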
measure: viability, T/C (%)
Field: numeric (%). Do not append units.

A selection of reference data follows.
[[record]]
compound = "Cn1ncnc1C1c2n[nH]c(=O)c3cc(F)cc(c23)NC1c1ccc(F)cc1 (stereo unspecified) + Cc1ccccc1N=Nc1ccc(NC(=O)c2ccnn2C)c(C)c1"
measure = "viability, T/C"
result_value = 87

[[record]]
compound = "Cn1ncnc1C1c2n[nH]c(=O)c3cc(F)cc(c23)NC1c1ccc(F)cc1 (stereo unspecified) + Cc1cncc(-c2nc(NCCc3c[nH]c4ccccc34)c3ncn(C(C)C)c3n2)c1"
measure = "viability, T/C"
result_value = 117

[[record]]
compound = "CC[C@@]1(O)C(=O)OCc2c1cc1n(c2=O)Cc2cc3c(CN(C)C)c(O)ccc3nc2-1 + Cc1cncc(-c2nc(NCCc3c[nH]c4ccccc34)c3ncn(C(C)C)c3n2)c1"
measure = "viability, T/C"
result_value = 107

[[record]]
compound = "CC[C@@]1(O)C(=O)OCc2c1cc1n(c2=O)Cc2cc3c(CN(C)C)c(O)ccc3nc2-1 + Cc1ccccc1N=Nc1ccc(NC(=O)c2ccnn2C)c(C)c1"
measure = "viability, T/C"
result_value = 98.1

[[record]]
compound = "CC[C@@]1(O)C(=O)OCc2c1cc1n(c2=O)Cc2cc3c(CN(C)C)c(O)ccc3nc2-1 + CC(CO)NC(=O)c1cc(-c2ccc(Cl)cc2)nn(-c2cnn(C)c2)c1=O"
measure = "viability, T/C"
result_value = 108


Turning now to a further compound:
The reported value for Cn1ncnc1C1c2n[nH]c(=O)c3cc(F)cc(c23)NC1c1ccc(F)cc1 (stereo unspecified) + CC(CO)NC(=O)c1cc(-c2ccc(Cl)cc2)nn(-c2cnn(C)c2)c1=O in terms of viability, T/C is 99.3
